Biological target: Voltage-dependent calcium channel gamma-2 subunit (Mus musculus) + Glutamate receptor 2 (Rattus norvegicus) (UniProt O88602+P19491)
Sequence (O88602 whole entry, looked up): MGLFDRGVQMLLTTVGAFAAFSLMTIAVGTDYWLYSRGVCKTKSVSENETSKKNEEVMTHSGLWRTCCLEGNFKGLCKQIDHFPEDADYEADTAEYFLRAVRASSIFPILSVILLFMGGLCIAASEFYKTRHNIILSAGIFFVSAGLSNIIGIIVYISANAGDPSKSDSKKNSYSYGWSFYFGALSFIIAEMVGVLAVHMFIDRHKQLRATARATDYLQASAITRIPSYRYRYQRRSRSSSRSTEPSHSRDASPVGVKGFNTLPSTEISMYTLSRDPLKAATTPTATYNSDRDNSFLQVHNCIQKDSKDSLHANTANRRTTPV
Sequence (P19491 whole entry, looked up): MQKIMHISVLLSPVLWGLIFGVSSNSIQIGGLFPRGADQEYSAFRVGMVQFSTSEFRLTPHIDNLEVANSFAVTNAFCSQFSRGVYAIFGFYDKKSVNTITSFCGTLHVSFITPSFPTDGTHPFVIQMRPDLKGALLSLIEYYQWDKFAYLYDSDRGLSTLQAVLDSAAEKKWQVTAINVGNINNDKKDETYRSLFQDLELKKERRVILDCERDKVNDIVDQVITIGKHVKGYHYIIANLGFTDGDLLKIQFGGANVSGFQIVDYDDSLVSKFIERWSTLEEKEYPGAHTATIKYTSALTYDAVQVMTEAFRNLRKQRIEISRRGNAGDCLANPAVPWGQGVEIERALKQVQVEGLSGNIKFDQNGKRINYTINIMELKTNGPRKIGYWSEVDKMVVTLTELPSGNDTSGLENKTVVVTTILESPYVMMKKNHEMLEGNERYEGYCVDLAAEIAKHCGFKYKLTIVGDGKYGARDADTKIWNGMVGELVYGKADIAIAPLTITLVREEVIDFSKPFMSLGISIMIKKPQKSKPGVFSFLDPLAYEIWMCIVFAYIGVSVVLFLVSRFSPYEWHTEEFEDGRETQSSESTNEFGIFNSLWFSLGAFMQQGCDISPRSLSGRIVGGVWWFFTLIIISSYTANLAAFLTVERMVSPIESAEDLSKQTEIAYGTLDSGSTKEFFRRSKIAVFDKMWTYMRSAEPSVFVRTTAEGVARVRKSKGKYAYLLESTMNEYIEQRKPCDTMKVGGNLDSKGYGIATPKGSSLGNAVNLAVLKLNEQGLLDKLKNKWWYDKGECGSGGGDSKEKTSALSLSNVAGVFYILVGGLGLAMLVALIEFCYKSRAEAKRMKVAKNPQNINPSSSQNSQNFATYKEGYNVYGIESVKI
Test: modulators of GluA2-stargazin AMPA receptor complexes, primary screen, cell-based, membrane potential dye (AID 1259245)
Details: HEK293 GluA2+stargazin, membrane potential dye (FDSS), glutamate EC50, at 30 µM, hits were called plate by plate, in both directions; compound-alone response (agonism)
Hit rate of the full screen: of about 40,000 compounds, about 1,400 (3.5%) were called active. Shown is part of a subset that was picked to be rich in actives.
valueKind: compound max-min signal
Give bare numbers.

Please review the following examples before continuing.
{"molecule": "O=C(CCc1ccccc1)NCCS(=O)(=O)N1CCN(Cc2ccccc2)CC1", "compound max-min signal": 0.0536}
{"molecule": "COc1ccc(OC)c2sc(N(CCN3CCOCC3)C(=O)c3cccc(F)c3)nc12", "compound max-min signal": 0.177}
{"molecule": "CCCN(CCC)S(=O)(=O)c1cc([N+](=O)[O-])ccc1C", "compound max-min signal": 0.0514}
{"molecule": "CCC(C(=O)Nc1cc(C)nn1-c1nc2c(cnn2-c2ccccc2)c(=O)[nH]1)c1ccccc1 (configuration not stated)", "compound max-min signal": 0.102}
{"molecule": "Cc1cc(C)c2c(n1)nn1c(-n3ccnc3)cc(C)nc21", "compound max-min signal": 0.202}

Give compound max-min signal for each of the items listed below.
1. CCNC(=O)CSc1nc(-c2ccccc2)c(NC(=O)CC2CCCC2)s1
2. COc1cc(NS(=O)(=O)c2ccc(NC(=O)c3ccc(S(=O)(=O)N4CCOCC4)cc3)cc2)ncn1

## Output
1: 0.0584; 2: 0.0995
